Measured TGI, listed per entry.
Test system: IGROV1 ovarian
PROTOCOL DESCRIPTION: NCI tumour cell line growth inhibition, 48 h
QUANTITY NAME: TGI

compound=O=c1ccn(COC(COCc2ccccc2)COCc2ccccc2)c(=O)[nH]1 quantity_name=TGI reported_measurement="> 100 µM"
compound=O=C1C2=C(CC3=C(C2)CS(=O)(=O)C3)C(=O)C2=C1CC1=C(C2)CS(=O)(=O)C1 quantity_name=TGI reported_measurement="36.5 µM"
compound=NC(=O)/N=C1/CCC2C3CCCC2C13 quantity_name=TGI reported_measurement="> 100 µM"
compound=CC(=O)OC(C)(C)/C(C)=C/C(=O)O[C@H]1C(=O)O[C@@H]2C[C@H]3[C@H](C)C(=O)C(O[C@@H]4O[C@H](CO)[C@@H](O)[C@H](O)[C@H]4O)=C[C@]3(C)[C@H]3[C@@H](O)[C@H](O)[C@@]4(C(=O)O)OC[C@]32[C@@H]14 quantity_name=TGI reported_measurement="> 100 µM"
compound="O=C(O)CCC(N=Cc1nc(-c2ccccc2)oc1O)C(=O)O (stereo not drawn)" quantity_name=TGI reported_measurement="> 100 µM"
compound="Cc1c2c(c(O)c3c(O)cccc13)C(=O)C1(O)C(O)=C(C(=O)NCNc3ccc(C(N)=O)cn3)C(=O)C(N(C)C)C1C2 (stereo not drawn)" quantity_name=TGI reported_measurement="6.27 µM"
compound="CC1(C)Cc2nc3c(cc2C(=O)C1C=N/C(C#N)=C(\\N)C#N)C(=O)C(C=N/C(C#N)=C(\\N)C#N)C(C)(C)C3 (stereo not drawn)" quantity_name=TGI reported_measurement="3.56 µM"
compound="CC(=O)OCC1OC(n2c(-c3ccccc3)c(C(C)=O)c(-c3cccc4ccccc34)c(C#N)c2=S)C(OC(C)=O)C(OC(C)=O)C1OC(C)=O (stereo not drawn)" quantity_name=TGI reported_measurement="> 100 µM"
compound=Cc1nnc(-c2cccc(-c3ccc(C(=O)NCC4CC4)cc3)c2)o1 quantity_name=TGI reported_measurement="> 25 µM"
compound="COC(=O)C1(C#N)C(C)(C)N=C(c2ccccc2)C12CCCCC2 (stereo not drawn)" quantity_name=TGI reported_measurement="> 100 µM"
compound=Cc1cc(/C=C/c2cc[n+](C)c3ccccc23)c(O)c2ncccc12 quantity_name=TGI reported_measurement="8.39 µM"
compound="NC(=O)Cc1nc2c(N)ncnc2n1C1OC(CO)C(O)C1O (stereo not drawn)" quantity_name=TGI reported_measurement="> 100 µM"
compound=O=C(Nc1ccncc1)C(=O)c1cn(S(=O)(=O)c2ccc(Cl)cc2)c2ccccc12 quantity_name=TGI reported_measurement="> 100 µM"
compound="COc1ccc2ccccc2c1C1NC(=O)c2ccccc2N1 (stereo not drawn)" quantity_name=TGI reported_measurement="> 100 µM"
compound=COCc1cc(C(=O)Nc2cc([C@H]3CC[C@@H](OC(=O)NC(C)C)C3)[nH]n2)n(C)n1 quantity_name=TGI reported_measurement="> 100 µM"
compound="CC(=O)Nc1c(C)cc2c(nc3n2CCC3OC(C)=O)c1[N+](=O)[O-] (stereo not drawn)" quantity_name=TGI reported_measurement="> 100 µM"
compound=O=C(COc1cc(O)c2c(=O)cc(-c3ccccc3)oc2c1)Nc1ccccc1C(F)(F)F quantity_name=TGI reported_measurement="15.9 µM"
compound=N#CC(=N)c1ncn(-c2ccc(N)cc2)c1N quantity_name=TGI reported_measurement="> 100 µM"

###

Test system: HOP-62 NSCLC
PROTOCOL DESCRIPTION: NCI tumour cell line growth inhibition, 48 h
Some compounds, each annotated with its measured TGI.
QUANTITY NAME: TGI (µM)

compound=Clc1ccc(-c2c3c(nn2-c2ccccn2)CCc2ccccc2-3)cc1Cl endpoint_unit=µM comparative_sign=> reported_measurement=100
compound="CC1(C)Cc2nc3c(cc2C(=O)C1C=N/C(C#N)=C(\\N)C#N)C(=O)C(C=N/C(C#N)=C(\\N)C#N)C(C)(C)C3 (centres undefined)" endpoint_unit=µM comparative_sign== reported_measurement=6.94
compound="O=C(O)CCC(N=Cc1nc(-c2ccccc2)oc1O)C(=O)O (centres undefined)" endpoint_unit=µM comparative_sign=> reported_measurement=100
compound="O=C(CCN1CCN(c2ccccc2)CC1)N1CCc2c([nH]c3ccccc23)C1c1cccnc1 (centres undefined)" endpoint_unit=µM comparative_sign== reported_measurement=40.4
compound=O=C1C=CC(=Nc2cc(Br)c(O)c(Br)c2)C=C1 endpoint_unit=µM comparative_sign== reported_measurement=76.1
compound=NCCOCCOCCNc1nc(-c2ccccc2)nc(N2CCN(c3ccccn3)CC2)n1 endpoint_unit=µM comparative_sign== reported_measurement=31
compound=CCC(=C/[C@H](C)C/C=C/C(C)=C/[C@@H](C)C(=O)[C@@H](C)[C@H](O)[C@@H](C)CC)/C=C/[C@@H]1OC(=O)C=C[C@H]1C endpoint_unit=µM comparative_sign=< reported_measurement=0.01
compound=CN(C)CCNC(=O)c1cccc(N(C)C(=O)c2ccccc2)c1[N+](=O)[O-] endpoint_unit=µM comparative_sign=> reported_measurement=100
compound="CN1C(=O)C2(C=CC(O)CC2)c2ccccc21 (centres undefined)" endpoint_unit=µM comparative_sign=> reported_measurement=100

###

System: LOX IMVI melanoma
PROTOCOL DESCRIPTION: NCI tumour cell line growth inhibition, 48 h
QUANTITY NAME: TGI

molecule="COc1cc(C2SCC(=O)N2c2ncc(C)s2)cc(OC)c1OC (stereo not given)" assayed_system="LOX IMVI melanoma" quantity_name=TGI reported_measurement="> 50 µM"
molecule="Cc1cccc(C)c1NC(=O)C1C(=O)N(c2c(C)cccc2C)C(=O)/C1=N\\N (stereo not given)" assayed_system="LOX IMVI melanoma" quantity_name=TGI reported_measurement="> 100 µM"
molecule="CC(=O)OCC1OC(Nn2c(=O)[nH]c3ccccc3c2=O)C(OC(C)=O)C(OC(C)=O)C1OC(C)=O (stereo not given)" assayed_system="LOX IMVI melanoma" quantity_name=TGI reported_measurement="> 100 µM"
molecule="CC(=O)OC[C@@H](COC(=O)/C=C/c1ccc(O)cc1)OC1OC(CO)C(O)C(O)C1O (stereo not given in full)" assayed_system="LOX IMVI melanoma" quantity_name=TGI reported_measurement="> 100 µM"
molecule=O=c1c(Br)cc2nc3ccccc3sc-2c1Br assayed_system="LOX IMVI melanoma" quantity_name=TGI reported_measurement="> 100 µM"
molecule=COCc1cc(C(=O)Nc2cc([C@H]3CC[C@@H](OC(=O)NC(C)C)C3)[nH]n2)n(C)n1 assayed_system="LOX IMVI melanoma" quantity_name=TGI reported_measurement="75.5 µM"
molecule="CCC(=O)Nc1ccc(NC(C#N)c2cccc(Oc3ccccc3)c2)cc1 (stereo not given)" assayed_system="LOX IMVI melanoma" quantity_name=TGI reported_measurement="47 µM"
molecule="N#Cc1c(N2CCC(O)C2)c2ccccc2n2c1nc1ccccc12 (stereo not given)" assayed_system="LOX IMVI melanoma" quantity_name=TGI reported_measurement="> 100 µM"
molecule=Nc1c(C(=O)Nc2cccc(F)c2)sc2nc3c(cc12)C(=O)CCC3 assayed_system="LOX IMVI melanoma" quantity_name=TGI reported_measurement="> 100 µM"
molecule=CCOC(=O)C1(C(=O)OCC)OC(C)=NC1(C(=O)OC)C(=O)OC assayed_system="LOX IMVI melanoma" quantity_name=TGI reported_measurement="> 100 µM"
molecule=COc1cc(/C=N/n2c(-c3ccccc3)nn(C(C)=O)c2=O)cc(OC)c1OC assayed_system="LOX IMVI melanoma" quantity_name=TGI reported_measurement="> 100 µM"
molecule=COc1ccc(/C=C2\CCS(=O)(=O)c3ccccc3C2=O)cc1 assayed_system="LOX IMVI melanoma" quantity_name=TGI reported_measurement="40.4 µM"
molecule=COc1cc(N(C)C)c(OC)cc1/C=C\c1ccnc2ccccc12 assayed_system="LOX IMVI melanoma" quantity_name=TGI reported_measurement="> 10 µM"
molecule=C#Cc1c(/C=C/C(=O)OCC)ccc2ccccc12 assayed_system="LOX IMVI melanoma" quantity_name=TGI reported_measurement="27.4 µM"
molecule="COC(=O)C1(C#N)C(C)(C)N=C(c2ccccc2)C12CCCCC2 (stereo not given)" assayed_system="LOX IMVI melanoma" quantity_name=TGI reported_measurement="> 100 µM"
molecule=CCOC(=O)C1=NN(c2ccc([N+](=O)[O-])cc2)[C@@]2(C)C[C@]3(c4ccccc4)N(c4ccc([N+](=O)[O-])cc4)N=C(C(=O)OCC)N3c3ccccc3N12 assayed_system="LOX IMVI melanoma" quantity_name=TGI reported_measurement="> 100 µM"
molecule=COc1cc(-c2cc(O)c(-c3ccc4ccccc4n3)c(=O)[nH]2)cc(OC)c1OC assayed_system="LOX IMVI melanoma" quantity_name=TGI reported_measurement="> 53.8 µM"
molecule=O=C(Nc1ccc(-n2ccc3c(NC(=O)c4ccccc4)ncnc32)cc1)Nc1ccc(Cl)c(Cl)c1 assayed_system="LOX IMVI melanoma" quantity_name=TGI reported_measurement="16.3 µM"
molecule=S=C(Nc1ccc(-c2nc3ccccc3[nH]2)cc1)Nc1ccc(-c2nc3ccccc3[nH]2)cc1 assayed_system="LOX IMVI melanoma" quantity_name=TGI reported_measurement="> 100 µM"
molecule=COC(=O)c1cccn1C(=O)n1cccc1 assayed_system="LOX IMVI melanoma" quantity_name=TGI reported_measurement="> 100 µM"

The reported numbers originate from PubChem BioAssay (NCI).
